- Read-out: Insulin-like growth factor-binding protein 1 (IGFBP1), IGFBP1 (gene 3484)
- METHOD SUMMARY: LTEA_HepaRG_IGFBP1: Life Technologies and Expression Analysis (LTEA) Assay for Insulin-like growth factor-binding protein 1 (IGFBP1) using HepaRG (AID 2283508)
- APPLIED CONDITIONS: mRNA level, 48 h; actives raise or lower the signal
Calls of active or inactive are those of the source. Rule for the calls: active = hit-call score of the fitted dose curve at least 0.9, where 1 is the maximum; inactive = score below 0.9.
TEST READOUT: AC50

compound=CCCCCCCC(=O)OC assay_result=inactive
compound=CCCC[C@H]1CN(CC2CCOCC2)C(=O)OC12CCN(C1(C)CCN(C(=O)c3c(C)ncnc3C)CC1)CC2 assay_result=inactive
compound=CC(C)c1cccc(C(C)C)c1NC(=O)NS(=O)(=O)c1cc(C(C)(C)O)co1 assay_result=inactive
compound="CCCCC(CC)COC(=O)CCCCCCCC(=O)OCC(CC)CCCC (stereo unspecified)" assay_result=inactive
compound=Cc1ccc(C(C)(C)C)c(O)c1 assay_result=inactive
compound="CC(=O)OC1CC(C)OC(C)O1 (stereo unspecified)" assay_result=inactive
compound=O=NO assay_result=inactive
compound=CN(C)CCCN1c2ccccc2Sc2ccc(Cl)cc21 assay_result="72.8 µM (active)"
compound="CC(=O)CC(c1ccccc1)c1c(O)c2ccccc2oc1=O (stereo unspecified)" assay_result=inactive
compound=Nc1nc(Cl)nc2c1ncn2[C@H]1C[C@H](O)[C@@H](CO)O1 assay_result="4.82 µM (active)"
compound=COC(=O)[C@H]1[C@H]2C[C@@H]3c4[nH]c5cc(OC)ccc5c4CCN3C[C@H]2C[C@@H](OC(=O)c2cc(OC)c(OC)c(OC)c2)[C@@H]1OC assay_result="47.7 µM (active)"
